Sourced from ChEMBL document CHEMBL4837201

MBC overview
# Tested on: Enterococcus faecalis
# method summary: Antibacterial activity against Enterococcus faecalis ATCC 29212 assessed as inhibition of bacterial growth incubated for 16 to 24 hrs by broth microdilution method
# Type: functional
# run parameters: time 16-24 hrs
measured metric: MBC (µM)

{"compound": "O=[N+]([O-])c1ccc2c(c1)CCN2C(c1ccc(C(F)(F)F)cc1)c1cc([N+](=O)[O-])ccc1O (stereo not given)", "assay result": 8.89}
{"compound": "Cc1ccccc1C(c1cc([N+](=O)[O-])ccc1O)N1CCc2cc([N+](=O)[O-])ccc21 (stereo not given)", "assay result": 9.64}
{"compound": "Cc1ccc(C(c2cc([N+](=O)[O-])ccc2O)N2CCc3c(C#N)cccc32)cc1 (stereo not given)", "assay result": 42.9}
{"compound": "Cc1ccc(C(c2cc([N+](=O)[O-])ccc2O)N2CCc3cc(O)ccc32)cc1 (stereo not given)", "assay result": 108}
{"compound": "Cc1ccccc1C(c1cc([N+](=O)[O-])ccc1O)N1CCc2cc(Br)ccc21 (stereo not given)", "assay result": 8.89}
